Data provenance is paper PMC10996840.

# Target Of Assay: PIM-1 kinase (Homo sapiens)
# Sequence (P11309 whole entry): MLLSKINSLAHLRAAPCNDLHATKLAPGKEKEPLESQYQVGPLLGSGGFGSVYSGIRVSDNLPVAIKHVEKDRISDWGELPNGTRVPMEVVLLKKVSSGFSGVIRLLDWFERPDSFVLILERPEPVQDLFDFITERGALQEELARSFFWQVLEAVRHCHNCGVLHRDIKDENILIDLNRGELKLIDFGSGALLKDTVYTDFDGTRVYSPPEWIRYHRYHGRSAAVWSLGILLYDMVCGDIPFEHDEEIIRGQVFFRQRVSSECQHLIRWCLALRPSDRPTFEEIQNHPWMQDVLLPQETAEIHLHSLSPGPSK
# Method Notes: PIM-1 kinase inhibitory assay
# Assay type: biochemical
# Setup Conditions: concentration not given
// reported % of PIM-1 inhibition per item
Express it in %; write the number only.

Worked examples, 3 compounds total:
Prompt: State the recorded % of PIM-1 inhibition for this entry: N#Cc1c(-c2ccc(Cl)cc2)c2c(=O)[nH]c(=S)[nH]c2n(C2CCCCC2)c1=O [Compound 10]
Completion: 94.6

Prompt: Here is the next compound: N#Cc1c(-c2ccc(Cl)cc2)c2c(=O)[nH]nnc2n(C2CCCCC2)c1=O [Compound 11]
Completion: 92.1

Prompt: Would you kindly repeat that for N#Cc1c(-c2ccc(Cl)cc2)c2c(=O)[nH]c(CCl)nc2n(C2CCCCC2)c1=O [Compound 6] ?
Completion: 89.6

Further cases:
Prompt: Find the recorded % of PIM-1 inhibition belonging to N#Cc1c(-c2ccc(Cl)cc2)c2c(=O)[nH]c(-c3ccc(Cl)cc3Cl)nc2n(C2CCCCC2)c1=O [Compound 4] and report it.
Completion: 97.8

---

Measured pIC50 of individual entries
# Target Of Assay: UniProt P11309
# Method Notes: PIM-1 kinase inhibitory assay
# Assay type: biochemical
FYI, pIC50 means -log10 of a concentration in mol per litre.

Prompt: // pIC50 lookup, key: N#Cc1c(-c2ccc(Cl)cc2)c2c(=O)[nH]c(CCl)nc2n(C2CCCCC2)c1=O [Compound 6]
Completion: 7.46

Prompt: Again, but for N#Cc1c(-c2ccc(Cl)cc2)c2c(=O)[nH]c(=S)[nH]c2n(C2CCCCC2)c1=O [Compound 10]
Completion: 7.76

Prompt: Now give it for N#Cc1c(-c2ccc(Cl)cc2)c2c(=O)[nH]nnc2n(C2CCCCC2)c1=O [Compound 11] too.
Completion: 7.67

Next:
Prompt: Could you tell me which pIC50 is on file for N#Cc1c(-c2ccc(Cl)cc2)c2c(=O)[nH]c(-c3ccc(Cl)cc3Cl)nc2n(C2CCCCC2)c1=O [Compound 4] ?
Completion: 7.94

---

molecules and their reported IC50
# System: HepG2 cells
# Method Notes: MTT cytotoxicity assay against HepG2 cells
# Type: cell-based, human
# Setup Conditions: read-out: IC50 ± SD HepG2; MTT assay, liver cancer HepG2 cells, mean ± SD, n = 3
Please respond with the number in nM and leave the unit unwritten.

Prompt: Request the reported IC50 associated with N#Cc1c(-c2ccc(Cl)cc2)c2c(=O)[nH]c(-c3ccc(Cl)cc3Cl)nc2n(C2CCCCC2)c1=O
Completion: 1130

Field: next molecule
Prompt: Give its IC50 value. Item: N#Cc1c(-c2ccc(Cl)cc2)c2c(=O)[nH]cnc2n(C2CCCCC2)c1=O
Completion: 4600
